Provenance of the data: patent US20250034269A1

molecular target: T1, human LTBR on cells (human, UniProt P36941 31-435); test: FACS CHO-huLTBR, 0.001 µg/ml
T1 construct: also called recombinant human LTBR CHO cells; CHO-K1 cells overexpressing human LTBR
RECORDED_ENDPOINT: MFI (MFI)
One number for each entry, in MFI.

Reference set, count: 3
BINDER	ENDPOINT_UNIT	MFI
P1AF0079 (antibody, human IgG1, kappa, L234A L235A, V domains shown, human IgG1 PG LALA; from transgenic rabbit immunization; also called LTBR (0079)) VH: EVQLLESGGALVQPGGSLRLSCAASGFTFSSYAMSWVRQAPGKGLEWVSVITGSSSSIDYADSVKGRFTISRDNSKNTLYLQMNSLRAEDTAVYYCAKGGSGVWSISTDFDYWGQGTLVTVSS VL: DIQMTQSPSFLSASVGDRVTITCQASQDISNYLNWYQQKPGKAPKHLIYAASSLHSGVPSRFSGSGSGAYFTLTITSLQPEDFATYYCQQSHSTPPTFGPGTKVDIKR	MFI	853
P1AE9457 (antibody, human IgG1, kappa, L234A L235A, V domains shown, human IgG1 PG LALA; from transgenic rabbit immunization; also called LTBR (9457)) VH: EVQLLESGGGLVQPGGSLRLSCAASGFTFSNYAMTWVRQAPGKGLEWVSEISGSGGSTYYADSVKGRFTISRDNSKNTLYLQMNSLRAEDTAVYYCAKDDDGAYGDTMDVWGQGTTVTVSS VL: DIQMTQSPSSLSASIGDRVTITCRASQDISNYLNWYQQKPGKAPKLLIYAASALQSGVPSRFSGSGSGTDFTLTISSLQPEDFATYYCQHYKSYPYTFGQGTKVEIRR	MFI	2080
P1AE9459 (antibody, human IgG1, kappa, L234A L235A, V domains shown, human IgG1 PG LALA; from transgenic rabbit immunization) VH: EVQLVESGGGLVQPGGSLRLSCAASGFTFSSYTMNWVRQAPGKGLEWVSGVAPSGDRTYYTDSVKGRFTISRDNAKNTLDLQMTSLRAEDAAIYICAQGFAFTNWGQGTMVTVSS VL: DIQMTQSPSSLSASVGDRVTITCRASQGISSALAWFQQKPGKAPKRLIFDASSLDSGVPSRFSGSGSGTDFTLTISSLQPEDFATYYCQQYNNYPLTFGGGTKVEMKR	MFI	1320

stdin: Which MFI value belongs to P1AF0080 (antibody, human IgG1, kappa, L234A L235A, V domains shown, human IgG1 PG LALA; from transgenic rabbit immunization; also called LTBR (0080)) VH: EVQLLESGGGLVQPGGSLRLSCAASGFTFSYYAMTWVRQAPGKGLEWIGVINSGGGTYYTDSVKGRFTMSRDNSKNTLYLQVNSLRAEDTAVYYCAKASTADVWGQGTTVTVSS VL: DIQMTQSPSSLSASVGDRVTITCQASQGISNYLSWYQQKPGKAPKRLIFAASSLESGVPSRFSGSGSGTDFTLTISSLQPEDFATYYCQQYNSYSLTFGGGTKLEIKR ?
stdout: 4060
